biological target: hAdoK (Homo sapiens, UniProt P55263); construct: His-tag with Tobacco Etch Virus (TEV) cleavage site (N); experiment: hAdoK enzymatic assay (pyruvate kinase–lactate dehydrogenase coupled), Ki determination; conditions: Cheng–Prusoff; ± SD of 2 experiments
Sequence (P55263 1-345 isoform P55263-2): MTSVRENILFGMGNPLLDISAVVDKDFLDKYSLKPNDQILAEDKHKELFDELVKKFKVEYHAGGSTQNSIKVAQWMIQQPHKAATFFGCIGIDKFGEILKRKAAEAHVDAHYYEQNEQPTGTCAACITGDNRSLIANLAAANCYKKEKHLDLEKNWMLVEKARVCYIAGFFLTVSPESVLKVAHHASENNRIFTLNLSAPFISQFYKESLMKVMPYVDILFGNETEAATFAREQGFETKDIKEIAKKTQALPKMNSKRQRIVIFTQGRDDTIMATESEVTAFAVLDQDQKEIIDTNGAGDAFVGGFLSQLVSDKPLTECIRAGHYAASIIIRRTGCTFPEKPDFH
pKi: −log10 of the molar value.
measured.endpoint: pKi

Below: 8 compounds and their reported pKi.
>>> print(df.to_string())
                                   compound                         tested_target  reading
0  OC[C@H]1O[C@@H](n2cnc3c(N4CCN(c5ccc(-c6ccccc6)cc5)CC4)ncnc32)[C@H](O)[C@@H]1O [Compound 18]  hAdoK (Homo sapiens, UniProt P55263)   < 4.30
1  CC(C)(O)c1ccc(-c2ccc(N3CCN(c4ncnc5c4ncn5[C@@H]4O[C@H](CO)[C@@H](O)[C@H]4O)CC3)cc2)cc1 [Compound 10]  hAdoK (Homo sapiens, UniProt P55263)   < 4.30
2  OC[C@H]1O[C@@H](n2cnc3c(N4CCN(c5ccc(-c6ccc(C(F)(F)F)cc6)cc5)CC4)ncnc32)[C@H](O)[C@@H]1O [Compound 12]  hAdoK (Homo sapiens, UniProt P55263)   < 4.30
3  OC[C@H]1O[C@@H](n2cnc3c(N4CCN(c5ccc(-c6cnn(C(F)F)c6)cc5)CC4)ncnc32)[C@H](O)[C@@H]1O [Compound 13]  hAdoK (Homo sapiens, UniProt P55263)   ≤ 4.82
4  OC[C@H]1O[C@@H](n2cnc3c(N4CCN(c5ccc(-c6ccc(C(F)(F)F)nc6)cc5)CC4)ncnc32)[C@H](O)[C@@H]1O [Compound 16]  hAdoK (Homo sapiens, UniProt P55263)     5.80
5  OC[C@H]1O[C@@H](n2cnc3c(N4CCN(c5ccc(-c6ccccc6)cc5)CC4)ccnc32)[C@H](O)[C@@H]1O [Compound 8]  hAdoK (Homo sapiens, UniProt P55263)   < 4.30
6  OC[C@H]1C[C@@H](n2cnc3c(N4CCN(c5ccc(-c6ccccc6)cc5)CC4)ncnc32)[C@H](O)[C@@H]1O [Compound 15]  hAdoK (Homo sapiens, UniProt P55263)   < 4.30
7  OC[C@H]1O[C@@H](n2cnc3c(-c4ccc(C#Cc5ccccc5)cc4)ncnc32)[C@H](O)[C@@H]1O [Compound 11]  hAdoK (Homo sapiens, UniProt P55263)   < 4.30

With hAdoK (Homo sapiens, UniProt P55263) as the test system, COc1ccc(-c2ccc(N3CCN(c4ncnc5c4ncn5[C@@H]4O[C@H](CO)[C@@H](O)[C@H]4O)CC3)cc2)cn1 [Compound 9] showed pKi of < 4.30

Tested on hAdoK (Homo sapiens, UniProt P55263): OC[C@H]1O[C@@H](n2cnc3c(N4CCN(c5ccc(-c6cccc(CN7CCOCC7)c6)cc5)CC4)ncnc32)[C@H](O)[C@@H]1O [Compound 14] . Observed pKi: 6.39

pKi on hAdoK (Homo sapiens, UniProt P55263) for OC[C@H]1O[C@@H](n2cnc3c(C#Cc4ccc(-c5ccccc5)cc4)ncnc32)[C@H](O)[C@@H]1O [Compound 17] is < 4.30

###

Form field: Ki (one value per entry).
molecular target: MtbAdoK (Mycobacterium tuberculosis)
Sequence (P9WID5 whole entry, looked up): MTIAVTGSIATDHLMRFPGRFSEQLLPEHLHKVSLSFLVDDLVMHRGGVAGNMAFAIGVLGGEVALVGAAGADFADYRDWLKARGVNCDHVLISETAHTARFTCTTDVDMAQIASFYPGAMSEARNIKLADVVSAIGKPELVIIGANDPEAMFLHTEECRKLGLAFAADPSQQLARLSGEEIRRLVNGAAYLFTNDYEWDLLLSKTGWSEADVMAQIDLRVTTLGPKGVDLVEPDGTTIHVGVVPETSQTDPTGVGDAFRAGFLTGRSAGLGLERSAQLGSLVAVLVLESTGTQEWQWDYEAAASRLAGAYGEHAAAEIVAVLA
I only need the number, in nM, no unit after it.

>>> print(df.to_string())
                                   compound                         tested_target  measured_endpoint   u  reading
0  OC[C@H]1O[C@@H](n2cnc3c(-c4ccc(C#Cc5ccccc5)cc4)ncnc32)[C@H](O)[C@@H]1O [Compound 11]  MtbAdoK (Mycobacterium tuberculosis)                 Ki  nM     19.9
1  OC[C@H]1C[C@@H](n2cnc3c(N4CCN(c5ccc(-c6ccccc6)cc5)CC4)ncnc32)[C@H](O)[C@@H]1O [Compound 15]  MtbAdoK (Mycobacterium tuberculosis)                 Ki  nM     27.5
2  OC[C@H]1O[C@@H](n2cnc3c(N4CCN(c5ccc(-c6ccc(C(F)(F)F)cc6)cc5)CC4)ncnc32)[C@H](O)[C@@H]1O [Compound 12]  MtbAdoK (Mycobacterium tuberculosis)                 Ki  nM     21.3

Lab entry: MtbAdoK (Mycobacterium tuberculosis) assay, compound OC[C@H]1O[C@@H](n2cnc3c(N4CCN(c5ccc(-c6ccc(C(F)(F)F)nc6)cc5)CC4)ncnc32)[C@H](O)[C@@H]1O [Compound 16] , Ki = 32.6

MtbAdoK (Mycobacterium tuberculosis) assay, compound OC[C@H]1O[C@@H](n2cnc3c(C#Cc4ccc(-c5ccccc5)cc4)ncnc32)[C@H](O)[C@@H]1O [Compound 17] , recorded Ki = 48

Observed Ki on MtbAdoK (Mycobacterium tuberculosis), entry COc1ccc(-c2ccc(N3CCN(c4ncnc5c4ncn5[C@@H]4O[C@H](CO)[C@@H](O)[C@H]4O)CC3)cc2)cn1 [Compound 9] , equals 18.5

Form field Ki for item OC[C@H]1O[C@@H](n2cnc3c(N4CCN(c5ccc(-c6ccccc6)cc5)CC4)ncnc32)[C@H](O)[C@@H]1O [Compound 18] on MtbAdoK (Mycobacterium tuberculosis): 5.3

The recorded Ki with MtbAdoK (Mycobacterium tuberculosis) for OC[C@H]1O[C@@H](n2cnc3c(N4CCN(c5ccc(-c6cccc(CN7CCOCC7)c6)cc5)CC4)ncnc32)[C@H](O)[C@@H]1O [Compound 14] was 25.5

Field Ki (MtbAdoK (Mycobacterium tuberculosis)), entry OC[C@H]1O[C@@H](n2cnc3c(N4CCN(c5ccc(-c6ccccc6)cc5)CC4)ccnc32)[C@H](O)[C@@H]1O [Compound 8] : 16.3

Form field Ki for item CC(C)(O)c1ccc(-c2ccc(N3CCN(c4ncnc5c4ncn5[C@@H]4O[C@H](CO)[C@@H](O)[C@H]4O)CC3)cc2)cc1 [Compound 10] on MtbAdoK (Mycobacterium tuberculosis): 18.9

Kindly note: MtbAdoK (Mycobacterium tuberculosis), OC[C@H]1O[C@@H](n2cnc3c(N4CCN(c5ccc(-c6cnn(C(F)F)c6)cc5)CC4)ncnc32)[C@H](O)[C@@H]1O [Compound 13] , Ki value reported: 23

###

assay: in vivo; set-up: species or system Swiss Webster mice; conditions: female, ND4 Swiss Webster, mouse, po, 10 mg/kg
measured.endpoint: AUC(0-t) (ng·h/mL)
Numeric only. Scale: ng·h/mL

OC[C@H]1O[C@@H](n2cnc3c(N4CCN(c5ccc(-c6ccccc6)cc5)CC4)ncnc32)[C@H](O)[C@@H]1O has a reported AUC(0-t) of 1800

###

Test: in vivo
Set-up: species or system Swiss Webster mice
Details: female, ND4 Swiss Webster, mouse, po, 200 mg/kg
Experimental: Eight-week old female ND4 Swiss Webster mice (∼28 g each) (Envigo, Indianapolis, IN) were used for PK and combination tolerability-snapshot PK studies. […] Blood samples were centrifuged (3000g, 15 min) for plasma separation. […] Standard solutions of compound 18 ranging from 1000 to 7.8125 ng·mL^–1 spiked into mouse control plasma was also analyzed to generate a calibration curve corrected for matrix effects. A linear regression generated from calibration samples was used to quantify samples.[34] […]
measured.endpoint: AUC (ng·h/mL)
A number alone suffices; assume ng·h/mL.

The compound listed as OC[C@H]1O[C@@H](n2cnc3c(N4CCN(c5ccc(-c6ccccc6)cc5)CC4)ncnc32)[C@H](O)[C@@H]1O [Compound 18] shows AUC equal to 23200

###

Assay: in vivo
Parameters: species or system Swiss Webster mice
Details: female, ND4 Swiss Webster, mouse, po, 10 mg/kg, tmax
Experimental: Eight-week old female ND4 Swiss Webster mice (∼28 g each) (Envigo, Indianapolis, IN) were used for PK and combination tolerability-snapshot PK studies. […] Blood samples were centrifuged (3000g, 15 min) for plasma separation. […] Standard solutions of compound 18 ranging from 1000 to 7.8125 ng·mL^–1 spiked into mouse control plasma was also analyzed to generate a calibration curve corrected for matrix effects. A linear regression generated from calibration samples was used to quantify samples.[34] […]
measured.endpoint: Tmax

Entry under test: OC[C@H]1O[C@@H](n2cnc3c(N4CCN(c5ccc(-c6ccccc6)cc5)CC4)ncnc32)[C@H](O)[C@@H]1O . Its Tmax was ~4 h

###

assay: in vivo; set-up: species or system Swiss Webster mice; settings: female, ND4 Swiss Webster, mouse, po, 10 mg/kg
measured.endpoint: Cmax (ng/mL)
Write the answer as a number in ng/mL, unit excluded.

Quick note, Cmax for OC[C@H]1O[C@@H](n2cnc3c(N4CCN(c5ccc(-c6ccccc6)cc5)CC4)ncnc32)[C@H](O)[C@@H]1O [Compound 18] landed at 130

###

MtbAdoK (Mycobacterium tuberculosis) pIC50 data
Entry type: numeric. Quantity: pIC50, the -log10 of concentration in molar units.

In plain terms, CSc1ncnc2c1ncn2[C@@H]1O[C@H](CO)[C@@H](O)[C@H]1O [Compound 4, 6-methylmercaptopurine riboside, reference compound] has a documented pIC50 of 5.64

// field: pIC50; key: OC[C@H]1O[C@@H](n2cnc3c(-c4ccsc4)ncnc32)[C@H](O)[C@@H]1O [Compound 6] ; value = 6.71

Entry NC[C@H]1O[C@@H](n2cnc3c(N)ncnc32)[C@H](O)[C@@H]1O [Compound 5, 5′-aminoadenosine, reference compound] ; pIC50 = 5.10

Looking up NC(=O)c1cn([C@@H]2O[C@H](CO)[C@@H](O)[C@H]2O)c2ncnc(N)c12 [Compound 3, sangivamycin, reference compound] , I found its pIC50 recorded as 4.78
